// data source = patent US20230174523A1

Target: TRAP1 enzyme (Homo sapiens, UniProt Q12931)
Test: Malachite green phosphate assay of TRAP1 ATPase activity
Type: biochemical
Details: TRAP1 ATPase activation, 150 nM Trap1, 20 μM ATP, geometric mean; read-out: Malachite Green Fluor DRC: GeoMean EC50
pEC50: −log10 of the molar value.
parameter: pEC50

• COc1ccc(NC(=O)c2ncc(-c3ccccc3)s2)cc1S(=O)(=O)Nc1c(C)cccc1C [Compound 449] = 4.70 to 5.00
• COc1ccc(NC(=O)c2cnc(C(F)(F)F)[nH]2)cc1S(=O)(=O)Nc1cccc(C(C)(C)C)c1 [Compound 368] = 4.00 to 4.70
• COc1ccc(NC(=O)c2cccn2-c2ccccc2)cc1S(=O)(=O)Nc1c(C)cccc1C [Compound 1042] = > 5.00
• COc1ccc(NC(=O)c2cnccc2C)cc1S(=O)(=O)Nc1ccc(C)cc1 [Compound 54] = 4.00 to 4.70
• CCOC(=O)/C=C/c1ccc(NC(=O)c2ncc(-c3ccccc3)o2)cc1S(=O)(=O)Nc1ccc(Cl)cc1 [Compound 634] = > 5.00
• COc1ccc(NC(=O)c2nc(-c3ccccc3)ccc2C)cc1S(=O)(=O)Nc1ccc(Cl)cc1 [Compound 565] = 4.00 to 4.70
• COc1ccc(NC(=O)c2cnc(-c3ccccc3)o2)cc1S(=O)(=O)Nc1ccc(C(F)(F)F)cc1 [Compound 650] = 4.00 to 4.70
• COc1ccc(NC(=O)c2cnc(C(F)(F)F)[nH]2)cc1S(=O)(=O)Nc1ccc(C)cc1 [Compound 224] = 4.00 to 4.70
• COc1ccc(NC(=O)c2cnc[nH]2)cc1S(=O)(=O)N(CCCCCCBr)c1ccc(Br)cc1 [Compound 251] = > 5.00
• COc1ccc(NC(=O)c2nnc(-c3ccccc3)s2)cc1S(=O)(=O)Nc1ccc(Cl)cc1 [Compound 500] = 4.70 to 5.00
• CCOC(=O)Cc1ccc(NC(=O)c2ncc(-c3ccccc3)o2)cc1S(=O)(=O)Nc1ccc(Cl)cc1 [Compound 558] = 4.70 to 5.00
• CCOC(=O)CCCCCN(c1ccc(Br)cc1)S(=O)(=O)c1cc(NC(=O)c2cnc(C(F)(F)F)[nH]2)ccc1OC [Compound 263] = 4.70 to 5.00
• COc1ccc(NC(=O)c2cnc(C(F)(F)F)[nH]2)cc1S(=O)(=O)N(CCCCCC[P+](c1ccccc1)(c1ccccc1)c1ccccc1)c1ccc(Br)cc1 [Compound 260] = > 5.00
• COc1ccc(NC(=O)c2ccccc2N2CCOCC2)cc1S(=O)(=O)Nc1c(C)cccc1C [Compound 1048] = 4.70 to 5.00
• COc1ccc(NC(=O)c2nnc(-c3ccccc3)o2)cc1S(=O)(=O)Nc1ccc(Cl)cc1 [Compound 424] = > 5.00

---

Documented pEC50 across a set of molecules
Biological target: TRAP1 enzyme (Homo sapiens, UniProt Q12931)
Assay: ADP Glo assay of TRAP1 ATPase activity
Type: biochemical
Conditions: TRAP1 ATPase activation, 150 nM Trap1, 20 μM ATP, geometric mean; read-out: ADP GLO DRC: GeoMean EC50
Description: Potency of test compounds to modulate the ATPase activity of TRAP1 enzyme was evaluated using ADP Glo assay. The assay is based on quantification of the ADP generated from ATP in the ATPase reaction. […] Second, the Kinase Detection Reagent is added to simultaneously convert ADP to ATP and allow the newly synthesized ATP to be measured using a luciferase/luciferin reaction. […]
pEC50: −log10 of the molar value.
parameter: pEC50

* COc1ccc(NC(=O)c2ccccc2Oc2ccccc2)cc1S(=O)(=O)Nc1c(C)cccc1C [Compound 1234] | > 5.00
* COc1ccc(NC(=O)c2ccc3c(c2)C2CCCS2(=O)=N3)cc1S(=O)(=O)Nc1c(C)cccc1C (stereo not shown) [Compound 1016] | 4.00 to 4.70
* COc1ccc(NC(=O)c2cc3c(C)nn(C)c3s2)cc1S(=O)(=O)Nc1c(Cl)cccc1Cl [Compound 1375] | 4.70 to 5.00
* COc1ccc(NC(=O)c2noc3c2CCCC3)cc1S(=O)(=O)Nc1c(C)cccc1C [Compound 1114] | 4.70 to 5.00
* O=C(Nc1ccc(F)c(S(=O)(=O)Nc2ccc(Cl)cc2)c1)c1cccc(-n2cncn2)c1 [Compound 1220] | 4.00 to 4.70
* CCc1ccnc(C(=O)Nc2ccc(OC)c(S(=O)(=O)Nc3c(C)cccc3C)c2)c1 [Compound 1151] | > 5.00
* COc1ccccc1-c1nc(C(=O)Nc2ccc(OC)c(S(=O)(=O)Nc3ccc(Br)cc3)c2)c[nH]1 [Compound 1181] | > 5.00
* COc1ccc(NC(=O)c2cnc(-c3ccccc3)[nH]2)cc1S(=O)(=O)Nc1c(C)cc(Cl)cc1C [Compound 443] | > 5.00
* COc1ccc(NC(=O)c2cc(C)nc3onc(C)c23)cc1S(=O)(=O)Nc1c(C)cccc1C [Compound 1226] | 4.00 to 4.70
* COc1ccc(NC(=O)c2n[nH]c3c2CCCC3)cc1S(=O)(=O)Nc1c(C)cccc1C [Compound 1235] | 4.70 to 5.00
* COc1ccc(NC(=O)c2csc(-c3cccs3)n2)cc1S(=O)(=O)Nc1c(C)cccc1C [Compound 1136] | > 5.00
* CCCn1cc(C(=O)Nc2ccc(F)c(S(=O)(=O)Nc3ccc(Cl)cc3)c2)cn1 [Compound 683] | 4.00 to 4.70
* COc1ccc(NC(=O)c2ccc(Cl)nc2C)cc1S(=O)(=O)Nc1c(C)cccc1C [Compound 1057] | 4.00 to 4.70
* COc1ccc(NC(=O)c2cccc(-c3cccnc3)c2)cc1S(=O)(=O)Nc1c(C)cccc1C [Compound 1225] | > 5.00
* COc1ccc(NC(=O)c2cc(-c3ccnn3C)c(Cl)s2)cc1S(=O)(=O)Nc1c(C)cccc1C [Compound 1079] | > 5.00
* O=C(Nc1ccc(F)c(S(=O)(=O)Nc2ccc(Cl)cc2)c1)c1nccnc1C(F)(F)F [Compound 710] | 4.70 to 5.00

---

Target: TRAP1 enzyme (Homo sapiens, UniProt Q12931)
Sequence (Q12931 60-704): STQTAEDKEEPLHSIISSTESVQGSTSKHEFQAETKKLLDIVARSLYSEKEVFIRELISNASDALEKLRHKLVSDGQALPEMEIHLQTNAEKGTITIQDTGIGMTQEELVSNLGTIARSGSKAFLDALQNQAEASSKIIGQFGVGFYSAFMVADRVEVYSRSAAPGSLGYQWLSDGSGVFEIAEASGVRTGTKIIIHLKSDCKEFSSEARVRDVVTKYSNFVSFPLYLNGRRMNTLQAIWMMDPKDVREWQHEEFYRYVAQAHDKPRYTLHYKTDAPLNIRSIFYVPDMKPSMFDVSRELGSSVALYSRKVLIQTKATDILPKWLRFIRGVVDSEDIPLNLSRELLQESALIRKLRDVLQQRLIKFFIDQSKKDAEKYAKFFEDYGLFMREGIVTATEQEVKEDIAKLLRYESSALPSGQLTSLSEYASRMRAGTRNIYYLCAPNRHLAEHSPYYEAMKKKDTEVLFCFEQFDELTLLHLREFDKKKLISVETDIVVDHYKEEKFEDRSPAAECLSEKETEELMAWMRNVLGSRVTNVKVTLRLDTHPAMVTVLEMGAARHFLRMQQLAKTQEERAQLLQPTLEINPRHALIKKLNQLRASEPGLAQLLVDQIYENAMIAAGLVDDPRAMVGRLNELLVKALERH
Experiment: ADP Glo assay of TRAP1 ATPase activity
Assay type: biochemical
Details: read-out: ADP GLO DRC: Mean Emax
Documented Emax across a set of molecules
parameter: Emax

• COc1ccc(NC(=O)c2ccncc2-c2ccccc2)cc1S(=O)(=O)Nc1c(C)cccc1C [Compound 1267] = 123 to 159%
• O=C(Nc1ccc(F)c(S(=O)(=O)Nc2ccc(Cl)cc2)c1)c1csc(N2CCOCC2)n1 [Compound 745] = 123 to 159%
• COc1ccc(NC(=O)c2ncc(-c3ccccc3)o2)cc1S(=O)(=O)Nc1sc2c(c1C#N)CCCC2 [Compound 1671] = 160 to 199%
• COc1ccc(NC(=O)c2cc(-c3ccccc3)no2)cc1S(=O)(=O)Nc1c(C)cccc1C [Compound 1229] = 160 to 199%
• COc1ccc(NC(=O)c2cccc(-c3cnccn3)c2)cc1S(=O)(=O)Nc1c(C)cccc1C [Compound 1222] = 200 to 300%
• COc1ccc(NC(=O)c2ncc(-c3ccccc3)o2)cc1S(=O)(=O)Nc1c(C)cc(C)nc1C [Compound 1575] = 123 to 159%
• COc1ccc(NC(=O)c2ncc(-c3ccccc3)o2)cc1S(=O)(=O)Nc1c(C)ccnc1OC [Compound 1666] = 123 to 159%

---

Molecular target: TRAP1 enzyme (Homo sapiens)
Assay: ADP Glo assay of TRAP1 ATPase activity
Type: biochemical
Details: read-out: ADP GLO DRC: Mean Emax
Documented Emax across a set of compounds
parameter: Emax

- Cc1noc(C(C)C)c1C(=O)Nc1ccc(F)c(S(=O)(=O)Nc2ccc(Cl)cc2)c1 [Compound 751]: 160 to 199%
- COc1ccc(NC(=O)c2cccc(C(=O)N(C)C)c2)cc1S(=O)(=O)Nc1c(C)cccc1C [Compound 1095]: 160 to 199%
- COc1ccc(NC(=O)c2cccc3ncsc23)cc1S(=O)(=O)Nc1c(C)cccc1C [Compound 1227]: 200 to 300%
- COc1ccc(NC(=O)c2cnc(Cl)cc2Cl)cc1S(=O)(=O)Nc1c(C)cccc1C [Compound 1082]: 200 to 300%
- COc1ccc(NC(=O)c2ccc3ncccc3c2)cc1S(=O)(=O)Nc1c(C)cccc1C [Compound 1241]: 200 to 300%
- COc1ccc(NC(=O)c2ncn(C(C)C)n2)cc1S(=O)(=O)Nc1c(C)cccc1C [Compound 1069]: 160 to 199%
- COc1ccc(NC(=O)c2nnc(-c3ccccc3)[nH]2)cc1S(=O)(=O)Nc1ccc(Cl)cc1 [Compound 586]: 160 to 199%
- COc1ccc(NC(=O)c2ncc(-c3ccccc3)o2)cc1S(=O)(=O)Nc1ccc(C)nc1F [Compound 1684]: 123 to 159%
